// reported pIC50 per item
System: LNCaP
assay-info: Antiproliferative activity against human LNCAP cells after 72 hrs by phosphatase assay
Assay type: functional, cell-based
The meaning of pIC50 here: minus log10 of the concentration in molar units.

Here's what some known entries look like.
compound_structure_string=CC[C@]1(NC(=O)c2ccc3c(c2)CCCC3)C[C@H]2CN(CCc3c([nH]c4ccccc34)[C@@](C(=O)OC)(c3cc4c(cc3OC)N(C)[C@H]3[C@@](O)(C(=O)OC)[C@H](OC(C)=O)[C@]5(CC)C=CCN6CC[C@]43[C@@H]65)C2)C1 system_name=LNCaP parameter_measured=pIC50 reading=8.41
compound_structure_string=CC[C@]1(NC(=O)c2ccc3c(c2)CCCO3)C[C@H]2CN(CCc3c([nH]c4ccccc34)[C@@](C(=O)OC)(c3cc4c(cc3OC)N(C)[C@H]3[C@@](O)(C(=O)OC)[C@H](OC(C)=O)[C@]5(CC)C=CCN6CC[C@]43[C@@H]65)C2)C1 system_name=LNCaP parameter_measured=pIC50 reading=9.10
compound_structure_string=CC[C@]1(NC(=O)c2ccc(C)c(C)c2)C[C@H]2CN(CCc3c([nH]c4ccccc34)[C@@](C(=O)OC)(c3cc4c(cc3OC)N(C)[C@H]3[C@@](O)(C(=O)OC)[C@H](OC(C)=O)[C@]5(CC)C=CCN6CC[C@]43[C@@H]65)C2)C1 system_name=LNCaP parameter_measured=pIC50 reading=8.52
compound_structure_string=CC(=O)O[C@H]1C(=O)[C@@]2(C)[C@H]([C@H](OC(=O)c3ccccc3)[C@]3(O)C[C@H](OC(=O)[C@H](O)[C@@H](NC(=O)c4ccccc4)c4ccccc4)C(C)=C1C3(C)C)[C@]1(OC(C)=O)CO[C@@H]1C[C@@H]2O system_name=LNCaP parameter_measured=pIC50 reading=8.72

Now for the compound whose pIC50 we want.
input: Field: pIC50 (LNCaP). Entry: "CC[C@]1(O)C[C@@H]2CN(CCc3c([nH]c4ccccc34)[C@@](C(=O)OC)(c3cc4c(cc3OC)N(C)[C@H]3[C@@](O)(C(=O)OC)[C@H](OC(C)=O)[C@]5(CC)C=CCN6CC[C@]43[C@@H]65)C2)C1"
output: 8.29
